test_system: human ether a go-go (hERG) channel (Homo sapiens (Human), UniProt Q12809)
Sequence (Q12809 whole entry): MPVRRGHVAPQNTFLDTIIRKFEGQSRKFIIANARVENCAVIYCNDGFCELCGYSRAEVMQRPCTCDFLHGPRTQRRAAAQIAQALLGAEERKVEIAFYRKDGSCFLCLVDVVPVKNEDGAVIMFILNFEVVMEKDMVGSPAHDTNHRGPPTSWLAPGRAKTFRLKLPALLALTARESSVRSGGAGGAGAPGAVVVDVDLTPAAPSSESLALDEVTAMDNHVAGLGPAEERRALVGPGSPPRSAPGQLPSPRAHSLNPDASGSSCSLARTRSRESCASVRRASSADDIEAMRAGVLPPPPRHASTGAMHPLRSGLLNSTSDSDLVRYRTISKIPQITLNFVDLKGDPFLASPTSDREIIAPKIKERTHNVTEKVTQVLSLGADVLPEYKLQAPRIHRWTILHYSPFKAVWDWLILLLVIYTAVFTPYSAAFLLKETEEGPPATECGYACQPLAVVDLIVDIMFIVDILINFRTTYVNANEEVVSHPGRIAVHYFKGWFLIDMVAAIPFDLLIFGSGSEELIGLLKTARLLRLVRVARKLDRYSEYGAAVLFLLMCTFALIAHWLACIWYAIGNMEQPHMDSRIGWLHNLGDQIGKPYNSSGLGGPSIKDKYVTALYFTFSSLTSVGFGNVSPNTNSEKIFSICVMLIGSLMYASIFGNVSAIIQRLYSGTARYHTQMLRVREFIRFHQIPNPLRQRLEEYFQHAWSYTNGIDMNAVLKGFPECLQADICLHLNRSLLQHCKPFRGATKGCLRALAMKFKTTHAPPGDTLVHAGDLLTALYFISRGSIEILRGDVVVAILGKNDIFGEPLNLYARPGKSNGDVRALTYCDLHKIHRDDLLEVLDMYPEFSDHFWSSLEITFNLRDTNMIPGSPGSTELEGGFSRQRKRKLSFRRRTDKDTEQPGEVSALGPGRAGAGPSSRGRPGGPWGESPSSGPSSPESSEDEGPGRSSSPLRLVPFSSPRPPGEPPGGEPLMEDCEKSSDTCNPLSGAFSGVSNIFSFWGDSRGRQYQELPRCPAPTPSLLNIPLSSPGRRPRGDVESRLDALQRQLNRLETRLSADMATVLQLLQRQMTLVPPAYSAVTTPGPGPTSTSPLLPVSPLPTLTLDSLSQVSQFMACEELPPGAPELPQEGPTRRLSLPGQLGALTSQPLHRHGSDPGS
test_details: hERG inhibition, IonWorks patch clamp electrophysiology
pIC50: −log10 of the molar value.
attribute_measured: pIC50

1. C#Cc1cc(Nc2nccc(Oc3ccc(NC(=O)Nc4cc(C(C)(C)C)cc(NS(C)(=O)=O)c4OC)c4ccccc34)n2)cc(C(=O)NCCOCCOCCOC)c1 ... < 5.52

----------
test_system: Lck (Homo sapiens (Human), UniProt P06239)
Sequence (P06239 whole entry): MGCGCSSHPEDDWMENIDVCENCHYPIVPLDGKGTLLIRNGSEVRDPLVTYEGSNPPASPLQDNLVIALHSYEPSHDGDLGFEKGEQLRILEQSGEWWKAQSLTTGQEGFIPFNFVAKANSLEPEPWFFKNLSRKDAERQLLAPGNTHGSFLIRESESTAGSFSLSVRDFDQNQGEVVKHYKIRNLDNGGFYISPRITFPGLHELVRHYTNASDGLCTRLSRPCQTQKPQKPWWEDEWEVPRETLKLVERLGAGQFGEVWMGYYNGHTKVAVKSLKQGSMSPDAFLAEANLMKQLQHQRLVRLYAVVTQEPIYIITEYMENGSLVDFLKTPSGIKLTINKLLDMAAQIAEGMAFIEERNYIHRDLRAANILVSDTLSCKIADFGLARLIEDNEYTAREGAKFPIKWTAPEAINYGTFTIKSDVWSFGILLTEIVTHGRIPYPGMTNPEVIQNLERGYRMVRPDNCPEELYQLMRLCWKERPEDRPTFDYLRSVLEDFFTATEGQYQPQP
pKd: −log10 of the molar value.
attribute_measured: pKd

1) C#Cc1cc(Nc2nccc(Oc3ccc(NC(=O)Nc4cc(C(C)(C)C)cc(NS(C)(=O)=O)c4OC)c4ccccc34)n2)cc(C(=O)NCCOCCOCCOC)c1 ... 8.39

----------
test_details: Plasma pharmacokinetics and total colon distribution after oral administration to mice
Assay type: in vivo
experimental_context: male, C57BL/6, mouse, total colon, oral 5 mg/kg, vehicle B, 24 h, read-out: Median total colon concentration
attribute_measured: concentration at 24 h (ng/g)

1. C#Cc1cc(Nc2nccc(Oc3ccc(NC(=O)Nc4cc(C(C)(C)C)cc(NS(C)(=O)=O)c4OC)c4ccccc34)n2)cc(C(=O)NCCOCCOCCOC)c1 ... 23

----------
test_system: c-Src (Homo sapiens (Human))
Sequence (P12931 whole entry, looked up): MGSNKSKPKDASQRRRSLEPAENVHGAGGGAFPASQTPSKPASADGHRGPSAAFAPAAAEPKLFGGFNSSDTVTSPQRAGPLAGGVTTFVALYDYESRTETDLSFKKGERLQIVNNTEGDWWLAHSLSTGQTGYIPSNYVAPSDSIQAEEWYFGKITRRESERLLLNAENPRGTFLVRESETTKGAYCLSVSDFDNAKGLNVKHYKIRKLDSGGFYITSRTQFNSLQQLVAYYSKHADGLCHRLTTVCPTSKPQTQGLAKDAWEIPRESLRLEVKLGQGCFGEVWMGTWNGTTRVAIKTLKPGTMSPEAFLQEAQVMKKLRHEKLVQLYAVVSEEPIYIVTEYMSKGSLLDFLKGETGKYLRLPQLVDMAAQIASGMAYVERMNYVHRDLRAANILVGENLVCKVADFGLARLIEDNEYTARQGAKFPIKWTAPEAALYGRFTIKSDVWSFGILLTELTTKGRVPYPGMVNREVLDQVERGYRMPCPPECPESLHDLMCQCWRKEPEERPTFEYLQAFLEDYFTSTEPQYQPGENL
attribute_measured: IC50 (nM)

1. C#Cc1cc(Nc2nccc(Oc3ccc(NC(=O)Nc4cc(C(C)(C)C)cc(NS(C)(=O)=O)c4OC)c4ccccc34)n2)cc(C(=O)NCCOCCOCCOC)c1 ... 24

----------
test_system: Syk (Homo sapiens (Human))
pIC50: −log10 of the molar value.
attribute_measured: pIC50

1. C#Cc1cc(Nc2nccc(Oc3ccc(NC(=O)Nc4cc(C(C)(C)C)cc(NS(C)(=O)=O)c4OC)c4ccccc34)n2)cc(C(=O)NCCOCCOCCOC)c1 ... 6.23

----------
test_system: CYP2C9 (Homo sapiens (Human), UniProt P11712)
Sequence (P11712 whole entry): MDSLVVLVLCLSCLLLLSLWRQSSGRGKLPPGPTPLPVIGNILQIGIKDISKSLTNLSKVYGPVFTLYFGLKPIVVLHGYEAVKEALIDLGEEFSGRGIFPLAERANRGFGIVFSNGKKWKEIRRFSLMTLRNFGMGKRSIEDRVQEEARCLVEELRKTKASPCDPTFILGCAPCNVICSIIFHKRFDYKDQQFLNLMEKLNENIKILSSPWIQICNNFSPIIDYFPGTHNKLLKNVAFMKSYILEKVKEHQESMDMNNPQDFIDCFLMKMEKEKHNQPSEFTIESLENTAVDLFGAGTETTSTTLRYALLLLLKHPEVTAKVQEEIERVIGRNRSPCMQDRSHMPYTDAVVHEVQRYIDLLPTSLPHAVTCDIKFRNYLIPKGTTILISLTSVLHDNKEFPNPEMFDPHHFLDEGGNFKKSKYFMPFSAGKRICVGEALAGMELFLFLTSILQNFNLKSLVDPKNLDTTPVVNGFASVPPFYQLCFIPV
test_details: CYP2C9 inhibition with and without preincubation
Type: in vitro ADME
experimental_context: human, CYP2C9, 30 min preincubation, 15 μM; read-out: 15 μM % Inh
attribute_measured: inhibition at 15 µM (%)

1) C#Cc1cc(Nc2nccc(Oc3ccc(NC(=O)Nc4cc(C(C)(C)C)cc(NS(C)(=O)=O)c4OC)c4ccccc34)n2)cc(C(=O)NCCOCCOCCOC)c1 ... 37

----------
test_details: Plasma pharmacokinetics and total colon distribution after oral administration to mice
Assay type: in vivo
experimental_context: male, C57BL/6, mouse, total colon, oral 5 mg/kg, vehicle B, 6 h, read-out: Median total colon concentration
attribute_measured: concentration at 6 h (ng/g)

1. C#Cc1cc(Nc2nccc(Oc3ccc(NC(=O)Nc4cc(C(C)(C)C)cc(NS(C)(=O)=O)c4OC)c4ccccc34)n2)cc(C(=O)NCCOCCOCCOC)c1 ... 3080

----------
test_system: CYP2C9 (Homo sapiens (Human), UniProt P11712)
test_details: CYP2C9 inhibition with and without preincubation
Assay type: in vitro ADME
experimental_context: CYP2C9, 0 min preincubation
pIC50: −log10 of the molar value.
attribute_measured: pIC50

1) C#Cc1cc(Nc2nccc(Oc3ccc(NC(=O)Nc4cc(C(C)(C)C)cc(NS(C)(=O)=O)c4OC)c4ccccc34)n2)cc(C(=O)NCCOCCOCCOC)c1 [Compound I] ... < 4.82
2) C#CC(C)(C)c1cc(NC(=O)Nc2ccc(Oc3ccnc(Nc4cc(C)c5[nH]ncc5c4)n3)c3ccccc23)n(-c2ccc(C)cc2)n1 [Ref Cpd A, reference compound] ... < 5.30

----------
test_details: Plasma pharmacokinetics and total colon distribution after oral administration to mice
Type: in vivo
experimental_context: male, C57BL/6, mouse, total colon, oral 5 mg/kg, vehicle B, 12 h, read-out: Median total colon concentration
attribute_measured: concentration at 12 h (ng/g)

1. C#Cc1cc(Nc2nccc(Oc3ccc(NC(=O)Nc4cc(C(C)(C)C)cc(NS(C)(=O)=O)c4OC)c4ccccc34)n2)cc(C(=O)NCCOCCOCCOC)c1 ... 126

----------
test_system: CYP3A4 (Homo sapiens (Human))
test_details: CYP3A4 inhibition with and without preincubation
Type: in vitro ADME
experimental_context: human, CYP3A4, 0 min preincubation, 15 μM; read-out: 15 μM % Inh
attribute_measured: inhibition at 15 µM

1. C#Cc1cc(Nc2nccc(Oc3ccc(NC(=O)Nc4cc(C(C)(C)C)cc(NS(C)(=O)=O)c4OC)c4ccccc34)n2)cc(C(=O)NCCOCCOCCOC)c1 ... 31%
2. C#CC(C)(C)c1cc(NC(=O)Nc2ccc(Oc3ccnc(Nc4cc(C)c5[nH]ncc5c4)n3)c3ccccc23)n(-c2ccc(C)cc2)n1 [Ref Cpd A, reference compound] ... 41%

----------
test_details: Pharmacokinetics after intravenous administration to rats
Format: in vivo
experimental_context: male, Wistar, rat, plasma, intravenous 0.25 mg/kg
attribute_measured: half-life (min)

1. C#Cc1cc(Nc2nccc(Oc3ccc(NC(=O)Nc4cc(C(C)(C)C)cc(NS(C)(=O)=O)c4OC)c4ccccc34)n2)cc(C(=O)NCCOCCOCCOC)c1 ... 6

----------
test_system: p38 MAPKα (Homo sapiens (Human), UniProt Q16539)
Sequence (Q16539 whole entry, looked up): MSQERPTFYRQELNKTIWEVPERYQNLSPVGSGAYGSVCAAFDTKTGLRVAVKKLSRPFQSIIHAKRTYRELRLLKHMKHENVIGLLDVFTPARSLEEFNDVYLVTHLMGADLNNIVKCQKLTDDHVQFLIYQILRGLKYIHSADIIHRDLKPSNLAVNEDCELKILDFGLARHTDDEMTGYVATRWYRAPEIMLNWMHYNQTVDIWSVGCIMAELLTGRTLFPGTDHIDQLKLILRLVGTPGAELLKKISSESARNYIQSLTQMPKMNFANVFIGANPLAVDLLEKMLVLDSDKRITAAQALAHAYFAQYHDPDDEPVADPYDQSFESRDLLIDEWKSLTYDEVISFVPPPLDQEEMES
test_details: KINOMEscan dissociation constant, p38 MAPKα
Type: binding
pKd: −log10 of the molar value.
attribute_measured: pKd

1. C#Cc1cc(Nc2nccc(Oc3ccc(NC(=O)Nc4cc(C(C)(C)C)cc(NS(C)(=O)=O)c4OC)c4ccccc34)n2)cc(C(=O)NCCOCCOCCOC)c1 [Compound I] ... 8.05

----------
test_details: Pharmacokinetics after intravenous administration to rats
Assay type: in vivo
experimental_context: male, Wistar, rat, plasma, intravenous 0.25 mg/kg
attribute_measured: AUC(0-inf) (ng·h/mL)

1) C#Cc1cc(Nc2nccc(Oc3ccc(NC(=O)Nc4cc(C(C)(C)C)cc(NS(C)(=O)=O)c4OC)c4ccccc34)n2)cc(C(=O)NCCOCCOCCOC)c1 [Compound I] ... 871

----------
test_system: p38 MAPKα (Homo sapiens (Human), UniProt Q16539)
test_details: p38 MAPKα enzyme inhibition (Method 2), Z-LYTE FRET
Format: biochemical
attribute_measured: IC50

1. C#Cc1cc(Nc2nccc(Oc3ccc(NC(=O)Nc4cc(C(C)(C)C)cc(NS(C)(=O)=O)c4OC)c4ccccc34)n2)cc(C(=O)NCCOCCOCCOC)c1 ... 224 nM

----------
test_system: CYP3A4 (Homo sapiens (Human), UniProt P08684)
Sequence (P08684 whole entry): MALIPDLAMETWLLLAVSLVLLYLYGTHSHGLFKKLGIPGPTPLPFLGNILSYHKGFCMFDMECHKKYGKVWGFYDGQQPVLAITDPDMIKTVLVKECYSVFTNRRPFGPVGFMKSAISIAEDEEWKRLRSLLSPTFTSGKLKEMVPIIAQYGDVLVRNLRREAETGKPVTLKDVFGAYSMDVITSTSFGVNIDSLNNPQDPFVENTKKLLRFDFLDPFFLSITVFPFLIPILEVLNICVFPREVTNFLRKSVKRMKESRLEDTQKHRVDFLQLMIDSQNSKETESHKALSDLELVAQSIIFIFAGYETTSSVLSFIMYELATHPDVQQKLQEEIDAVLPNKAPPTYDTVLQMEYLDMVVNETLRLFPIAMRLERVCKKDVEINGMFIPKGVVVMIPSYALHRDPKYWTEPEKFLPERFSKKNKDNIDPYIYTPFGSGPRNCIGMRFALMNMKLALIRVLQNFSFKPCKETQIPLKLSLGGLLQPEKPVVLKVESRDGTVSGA
test_details: CYP3A4 inhibition with and without preincubation
Assay type: in vitro ADME
experimental_context: human, CYP3A4, 30 min preincubation, 15 μM; read-out: 15 μM % Inh
Consider the following molecules and their measured inhibition at 15 µM readings.
attribute_measured: inhibition at 15 µM

1) C#CC(C)(C)c1cc(NC(=O)Nc2ccc(Oc3ccnc(Nc4cc(C)c5[nH]ncc5c4)n3)c3ccccc23)n(-c2ccc(C)cc2)n1 [Ref Cpd A, reference compound] ... 92%
2) C#Cc1cc(Nc2nccc(Oc3ccc(NC(=O)Nc4cc(C(C)(C)C)cc(NS(C)(=O)=O)c4OC)c4ccccc34)n2)cc(C(=O)NCCOCCOCCOC)c1 ... 54%

----------
test_system: CYP2C9 (Homo sapiens (Human), UniProt P11712)
test_details: CYP2C9 inhibition with and without preincubation
Format: in vitro ADME
experimental_context: human, CYP2C9, 0 min preincubation, 5 μM (precipitation at 15 μM); read-out: % Inh, inhibition at 5 μM reported instead
attribute_measured: inhibition at 5 μM (%)

1. C#CC(C)(C)c1cc(NC(=O)Nc2ccc(Oc3ccnc(Nc4cc(C)c5[nH]ncc5c4)n3)c3ccccc23)n(-c2ccc(C)cc2)n1 [Ref Cpd A, reference compound] ... 31

----------
test_system: GSK3α (Homo sapiens (Human), UniProt P49840)
Sequence (P49840 whole entry): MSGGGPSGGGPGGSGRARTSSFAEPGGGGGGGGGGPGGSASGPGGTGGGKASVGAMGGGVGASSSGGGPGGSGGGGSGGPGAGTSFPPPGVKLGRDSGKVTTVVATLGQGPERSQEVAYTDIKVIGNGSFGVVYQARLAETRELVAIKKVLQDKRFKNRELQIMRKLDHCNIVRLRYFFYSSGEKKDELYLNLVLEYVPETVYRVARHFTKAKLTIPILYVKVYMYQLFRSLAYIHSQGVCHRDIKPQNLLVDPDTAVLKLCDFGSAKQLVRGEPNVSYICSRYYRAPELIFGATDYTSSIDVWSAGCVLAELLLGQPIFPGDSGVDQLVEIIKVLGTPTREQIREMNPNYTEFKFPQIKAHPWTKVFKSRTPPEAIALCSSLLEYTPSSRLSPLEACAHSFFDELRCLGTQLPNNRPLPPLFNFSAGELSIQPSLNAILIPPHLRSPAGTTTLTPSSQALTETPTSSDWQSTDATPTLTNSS
attribute_measured: IC50 (nM)

1) C#Cc1cc(Nc2nccc(Oc3ccc(NC(=O)Nc4cc(C(C)(C)C)cc(NS(C)(=O)=O)c4OC)c4ccccc34)n2)cc(C(=O)NCCOCCOCCOC)c1 [Compound I] ... 411

----------
test_system: CYP3A4 (Homo sapiens (Human), UniProt P08684)
test_details: CYP3A4 inhibition with and without preincubation
Type: in vitro ADME
experimental_context: CYP3A4, 0 min preincubation
attribute_measured: IC50

1) C#CC(C)(C)c1cc(NC(=O)Nc2ccc(Oc3ccnc(Nc4cc(C)c5[nH]ncc5c4)n3)c3ccccc23)n(-c2ccc(C)cc2)n1 [Ref Cpd A, reference compound] ... > 15 µM
2) C#Cc1cc(Nc2nccc(Oc3ccc(NC(=O)Nc4cc(C(C)(C)C)cc(NS(C)(=O)=O)c4OC)c4ccccc34)n2)cc(C(=O)NCCOCCOCCOC)c1 [Compound I] ... > 15 µM

----------
test_system: CYP2C9 (Homo sapiens (Human))
test_details: CYP2C9 inhibition with and without preincubation
Type: in vitro ADME
experimental_context: human, CYP2C9, 30 min preincubation, 5 μM (precipitation at 15 μM); read-out: % Inh, inhibition at 5 μM reported instead
attribute_measured: inhibition at 5 μM (%)

1. C#CC(C)(C)c1cc(NC(=O)Nc2ccc(Oc3ccnc(Nc4cc(C)c5[nH]ncc5c4)n3)c3ccccc23)n(-c2ccc(C)cc2)n1 [Ref Cpd A, reference compound] ... 66

Where do the numbers come from? From patent US8927563B2.
